# Lookup of reported GI50 keyed by entry
test system: NCI-H1048 cells; assay: MTT proliferation assay, NCI-H1048; type: cell-based; details: 5 days compound exposure, 1:3 serial dilution starting at 10 μM;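 note: Dose-response in 96-well plates over 8 or 10 concentration points, with exposure spanning 3-4 cell doublings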
*1 amine or outer side, *2 acyl side, *3 side chain or, on linkers, in order; H or OH if unused. Where a SMILES comes first, the peptide text is derived from it. Bridges are numbered along the chain shown (N, C = ends). [ ]: non-standard residue; d: D form. The star is where a group is joined. X52 = CN1C[C@@H]2C[C@H]1CN2c1ccc(-c2ccc(Cl)cc2C[C@@H](C(=O)[*:2])N(C)[*:1])cc1; NMehhhLys(Me) = CN([C@@H](CCCCCCCN(C)[*:3])C(=O)[*:2])[*:1]; cBuCO(3,3-F2-1-CF3) = O=C(C1(C(F)(F)F)CC(F)(F)C1)*; Pro(trans-4-F) = O=C(O)[C@@H]1C[C@@H](F)CN1; Gly(cPr) = N[C@H](C(=O)O)C1CC1
// units = nM; emit number, no label

>  <molecule>
CC(C)C[C@@H]1NC(=O)[C@@H](N(C)C(=O)[C@@H](NC(=O)[C@@H]2C[C@@H](F)CN2C(=O)C2(C(F)(F)F)CC(F)(F)C2)C2CC2)CCCCCCCN(C)C(=O)[C@H](Cc2cc(Cl)ccc2-c2ccc(N3C[C@@H]4C[C@H]3CN4C)cc2)N(C)C1=O [Example 357] ({cBuCO(3,3-F2-1-CF3)}-[Pro(trans-4-F)][Gly(cPr)][NMehhhLys(Me)]L[X52]; lactam 3-C)

>  <GI50 (nM)>
20

$$$$
>  <molecule>
CC(C)C[C@@H]1NC(=O)[C@@H](N(C)C(=O)[C@@H](NC(=O)[C@@H]2C[C@@H](F)CN2C(=O)C2(C(F)(F)F)CC(F)(F)C2)C2CC2)CC=CCCCCN(C)C(=O)[C@H](Cc2cc(Cl)cnc2OC2CC2)N(C)C1=O

>  <GI50 (nM)>
160

$$$$

Let us move to another entry and its GI50.
Notebook: CC(C)C[C@@H]1NC(=O)[C@@H](N(C)C(=O)[C@@H](NC(=O)[C@@H]2C[C@@H](F)CN2C(=O)C2(C(F)(F)F)CC(F)(F)C2)C2CC2)CC=CCCCCNC(=O)[C@H](Cc2cc(Cl)cnc2OC2CC2)N(C)C1=O (single isomer, unassigned) [Example 102-P1] , GI50 read as 350
